Target: Metabotropic glutamate receptor 5 (Homo sapiens, UniProt P41594)
Assay: Positive allosteric modulation of human mGluR5 expressed in HEK293A cells assessed as stimulation of glutamate-induced calcium flux by FLIPR method
MEASURED PROPERTY: EC50 (nM)

> print(dat)
                                   compound  number
1  O=C1CC(c2nc(-c3cccc(Cl)c3)no2)CN1c1ccc(F)cc1 (racemic)    10.7
2  O=C1CC(c2nc(-c3ccc(Cl)cc3)no2)CN1c1ccc(Cl)c(Cl)c1 (stereo unspecified)    1100

I. Cc1cccc(-c2noc(C3CC(=O)N(c4ccc(F)cc4)C3)n2)c1 (racemic)
II. O=C1CC(c2nc(-c3cccc(Cl)c3)no2)CN1c1ccc(Cl)c(Cl)c1 (stereo unspecified)
Task: Larger number for EC50: I , or II ? Kindly state the label of the option you pick.
Output: II
(II: 460 nM, I: 12.5 nM)

A. Cc1cccc(-c2noc(C3CC(=O)N(c4ccc(Cl)cc4)C3)n2)c1 (stereo unspecified)
B. Cc1cccc(-c2noc(C3CC(=O)N(c4ccc(F)cc4)C3)n2)c1 (single isomer, unassigned; (-))
C. Cc1ccc(N2CC(c3nc(-c4cccc(C(F)(F)F)c4)no3)CC2=O)cc1 (stereo unspecified)
D. Cc1ccc(N2CC(c3nc(-c4cccc(Cl)c4)no3)CC2=O)cc1C (stereo unspecified)
E. Cc1ccc(N2CC(c3nc(-c4cccc(Cl)c4)no3)CC2=O)cc1 (stereo unspecified)
Task: Sort low-to-high on EC50, please. Please list the labels in the order you were asked to rank them.
Output: B, A, D, E, C

a. Cc1ccc(N2CC(c3nc(-c4ccccc4)no3)CC2=O)cc1 (stereo unspecified)
b. O=C1CC(c2nc(-c3ccc(F)cc3)no2)CN1c1ccc(Cl)c(Cl)c1 (stereo unspecified)
Task: Larger number for EC50: a , or b ? Kindly state the label of the option you pick.
Output: b
(b: 2300 nM, a: 384 nM)

a. O=C1CC(c2nc(-c3ccccc3)no2)CN1c1ccc(F)cc1 (stereo unspecified)
b. O=C1CC(c2nc(-c3cccc(F)c3)no2)CN1c1ccc(F)cc1 (stereo unspecified)
Task: Larger number for EC50: a , or b ? Kindly state the label of the option you pick.
Output: b
(b: 88 nM, a: 58 nM)

----------
Biological target: Metabotropic glutamate receptor 5 (Homo sapiens)
Assay: Positive allosteric modulation of human mGluR5 expressed in HEK293A cells assessed as stimulation of glutamate-induced calcium flux by FLIPR method
Type: functional, cell-based
Settings: HEK293-A
MEASURED PROPERTY: Emax (%)

Would you please look over these solved cases?
> print(dat)
                                   compound  measured.property  result.unit  number
1  Cc1ccc(N2CC(c3nc(-c4cccc(C(F)(F)F)c4)no3)CC2=O)cc1 (stereo not given)               Emax            %      32
2  O=C1COc2ccccc2N1CCc1nc(-c2cccc(Cl)c2)no1               Emax            %     -29

a. O=C1CC(c2nc(-c3ccccc3)no2)CN1c1ccccc1 (stereo not given)
b. O=C1CC(c2nc(-c3cccc(F)c3)no2)CN1c1ccc(F)cc1 (stereo not given)
Task: Larger number for Emax: a , or b ? Kindly state the label of the option you pick.
Output: b
(b: 140%, a: 42%)

A. O=C1CC(c2nc(-c3cccc(C(F)(F)F)c3)no2)CN1c1ccc(F)cc1 (stereo not given)
B. O=c1sc2ccccc2n1Cc1nc(-c2cccc(Cl)c2)no1
Task: Please choose the item with the lower Emax value from this pair: A and B Kindly state the label of the option you pick.
Output: B
(B: 7%, A: 25%)

I. O=C1CCc2ccc(Cl)cc2N1CCc1nc(-c2cccc(Cl)c2)no1
II. Cc1cccc(N2CC(c3nc(-c4cccc(Cl)c4)no3)CC2=O)c1 (stereo not given)
Task: Please choose the item with the lower Emax value from this pair: I and II Kindly state the label of the option you pick.
Output: I
(I: -29%, II: 28%)

P. COc1cccc(N2CC(c3nc(-c4cccc(Cl)c4)no3)CC2=O)c1 (stereo not given)
Q. O=c1oc2ccccc2n1Cc1nc(-c2cccc(Cl)c2)no1
R. Cc1ccc(N2CC(c3nc(-c4cccc(F)c4)no3)CC2=O)cc1 (stereo not given)
Task: Sort low-to-high on Emax, please. Please list the labels in the order you were asked to rank them.
Output: P, Q, R
(P: -37%, Q: 4%, R: 130%)

----------
Molecular target: Cytochrome P450 2D6 (Homo sapiens, UniProt P10635)
Sequence (P10635 whole entry): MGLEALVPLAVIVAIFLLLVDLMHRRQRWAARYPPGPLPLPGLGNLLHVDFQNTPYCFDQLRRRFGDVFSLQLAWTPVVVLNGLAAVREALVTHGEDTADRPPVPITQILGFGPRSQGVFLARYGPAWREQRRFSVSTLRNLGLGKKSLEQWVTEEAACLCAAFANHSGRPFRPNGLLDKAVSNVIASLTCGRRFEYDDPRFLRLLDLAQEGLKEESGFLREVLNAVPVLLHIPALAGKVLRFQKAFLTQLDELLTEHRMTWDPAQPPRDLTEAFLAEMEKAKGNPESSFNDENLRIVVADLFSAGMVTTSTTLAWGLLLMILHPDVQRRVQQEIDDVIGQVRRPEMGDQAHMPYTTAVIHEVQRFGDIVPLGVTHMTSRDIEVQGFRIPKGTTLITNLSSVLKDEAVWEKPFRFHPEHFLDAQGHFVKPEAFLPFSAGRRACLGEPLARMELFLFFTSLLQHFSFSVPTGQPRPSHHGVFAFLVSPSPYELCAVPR
Assay: Inhibition of CYP2D6
Assay type: ADME
MEASURED PROPERTY: IC50

Task: What value of IC50 has been recorded for this entry: Cc1cccc(-c2noc(C3CC(=O)N(c4ccc(F)cc4)C3)n2)c1 (racemic)
Output: > 11 µM

----------
Target: Metabotropic glutamate receptor 5 (Homo sapiens, UniProt P41594)
Test: Negative allosteric modulation of human mGluR5 expressed in HEK293A cells assessed as inhibition of glutamate-induced calcium flux by FLIPR method
pIC50: −log10 of the molar value.
MEASURED PROPERTY: pIC50

Would you please look over these solved cases?
> print(dat)
                                   molecule  measured.property  number
1   O=C1COc2ccccc2N1Cc1nc(-c2cccc(Cl)c2)no1              pIC50    6.11
2  O=C1CC(c2nc(-c3cccc(Cl)c3)no2)CN1c1ccccc1Cl (stereo unspecified)              pIC50    6.17
3  COc1ccc(N2CC(c3nc(-c4cccc(Cl)c4)no3)CC2=O)cc1 (stereo unspecified)              pIC50    5.45

1. O=C1CC(c2nc(-c3cccc(Cl)c3)no2)CN1Cc1ccc(F)cc1 (stereo unspecified)
2. O=c1oc2ccccc2n1Cc1nc(-c2cccc(Cl)c2)no1
3. O=C1CC(c2nc(-c3cccc(Cl)c3)no2)CN1c1cccc(Cl)c1 (stereo unspecified)
Task: Order the records by pIC50, with each subsequent value no larger than the one before. Please list the labels in the order you were asked to rank them.
Output: 3, 2, 1
(3: 5.96, 2: 5.68, 1: 5.44)

a. CC(C)CN1CC(c2nc(-c3cccc(Cl)c3)no2)CC1=O (stereo unspecified)
b. O=C1CCc2ccc(Cl)cc2N1CCc1nc(-c2cccc(Cl)c2)no1
Task: Larger number for pIC50: a , or b ? Kindly state the label of the option you pick.
Output: b
(b: 6.26, a: 6.04)

a. O=c1sc2ccccc2n1Cc1nc(-c2cccc(Cl)c2)no1
b. Cc1cccc(N2CC(c3nc(-c4cccc(Cl)c4)no3)CC2=O)c1 (stereo unspecified)
c. COc1ccccc1N1CC(c2nc(-c3cccc(Cl)c3)no2)CC1=O (stereo unspecified)
d. Cc1ccccc1N1CC(c2nc(-c3cccc(Cl)c3)no2)CC1=O (stereo unspecified)
Task: Sort low-to-high on pIC50, please. Please list the labels in the order you were asked to rank them.
Output: b, a, c, d

A. COc1cccc(N2CC(c3nc(-c4cccc(Cl)c4)no3)CC2=O)c1 (stereo unspecified)
B. O=C1CC(c2nc(-c3cccc(Cl)c3)no2)CN1c1ccccc1F (stereo unspecified)
Task: Larger number for pIC50: A , or B ? Kindly state the label of the option you pick.
Output: A

A. O=C1COc2ccccc2N1CCc1nc(-c2cccc(Cl)c2)no1
B. C[C@H](c1ccccc1)N1C[C@H](c2nc(-c3cccc(Cl)c3)no2)CC1=O
Task: Please choose the item with the lower pIC50 value from this pair: A and B Kindly state the label of the option you pick.
Output: B

----------
Target: Metabotropic glutamate receptor 5 (Homo sapiens, UniProt P41594)
Test: Positive allosteric modulation of human mGluR5 expressed in HEK293A cells assessed as stimulation of glutamate-induced calcium flux by FLIPR method
MEASURED PROPERTY: EC50 (nM)

1. O=C1CC(c2nc(-c3cccc(Cl)c3)no2)CN1c1ccc(F)cc1 (single isomer, unassigned; (-))
2. O=C1CC(c2nc(-c3ccc(F)cc3)no2)CN1c1ccc(Cl)cc1 (centres undefined)
Task: Larger number for EC50: 1 , or 2 ? Kindly state the label of the option you pick.
Output: 2

----------
Target: Metabotropic glutamate receptor 5 (Homo sapiens)
Assay: Negative allosteric modulation of human mGluR5 expressed in HEK293A cells assessed as inhibition of glutamate-induced calcium flux by FLIPR method
Format: functional, cell-based
Set-up: concentration or dose not given beside the values
Settings: HEK293-A, concentration not given here
MEASURED PROPERTY: inhibition (%)

Would you please look over these solved cases?
> print(dat)
                                   compound                             tested.target  result.unit  number
1  O=C1CC(c2nc(-c3cccc(Cl)c3)no2)CN1c1ccc(Cl)c(Cl)c1 (stereo unspecified)  Metabotropic glutamate receptor 5 (Homo sapiens)            %     8.3
2  COc1cccc(N2CC(c3nc(-c4cccc(Cl)c4)no3)CC2=O)c1 (stereo unspecified)  Metabotropic glutamate receptor 5 (Homo sapiens)            %      92
3    O=c1sc2ccccc2n1Cc1nc(-c2cccc(Cl)c2)no1  Metabotropic glutamate receptor 5 (Homo sapiens)            %      71
4  Cc1ccccc1N1CC(c2nc(-c3cccc(Cl)c3)no2)CC1=O (stereo unspecified)  Metabotropic glutamate receptor 5 (Homo sapiens)            %      91
5  O=C1CC(c2nc(-c3cccc(Cl)c3)no2)CN1c1ccccc1F (stereo unspecified)  Metabotropic glutamate receptor 5 (Homo sapiens)            %      89
6  COc1ccccc1N1CC(c2nc(-c3cccc(Cl)c3)no2)CC1=O (stereo unspecified)  Metabotropic glutamate receptor 5 (Homo sapiens)            %      93
7  O=C1CC(c2nc(-c3cccc(Cl)c3)no2)CN1c1cccc(Cl)c1 (stereo unspecified)  Metabotropic glutamate receptor 5 (Homo sapiens)            %      68

1. O=C1COc2ccccc2N1Cc1nc(-c2cccc(Cl)c2)no1
2. COc1ccc(N2CC(c3nc(-c4cccc(Cl)c4)no3)CC2=O)cc1 (stereo unspecified)
3. O=C1CC(c2nc(-c3cccc(Cl)c3)no2)CN1c1ccc(Cl)cc1 (stereo unspecified)
4. Cc1ccc(N2CC(c3nc(-c4cccc(Cl)c4)no3)CC2=O)cc1 (stereo unspecified)
Task: Order the records by inhibition, with each subsequent value no larger than the one before. Please list the labels in the order you were asked to rank them.
Output: 1, 3, 2, 4
(1: 84%, 3: 44%, 2: 2%, 4: -2.5%)
